Test system: native geph
Test: µSPOT peptide microarray binding assay with native geph from mouse brain lysate
Details: µSPOT peptide microarray, GlyRβ full positional scan, native geph from mouse brain lysate; intensity normalised to wild-type sequence DLRSNDFSIVGSLPR (=1)
This listing pairs sequences with measured Native geph Binding Intensity [norm.].
I only need the number, in norm., no unit after it.

> print(dat)
                             input.sequence  reported.result
1  DLRSYDFSIVGSLPR [GlyRβ_Full_Positional_Scan_089]             0.68
2  DLRSNDFFIVGSLPR [GlyRβ_Full_Positional_Scan_147, GlyR β 414-428 variant S421F]             0.18
3  DLRSNDMSIVGSLPR [GlyRβ_Full_Positional_Scan_138, GlyR β 414-428 variant F420M]             0.32
4  DLRSNDFSIQGSLPR [GlyRβ_Full_Positional_Scan_200, GlyR β 414-428 variant V423Q]             0.41
5  DLRSNLFSIVGSLPR [GlyRβ_Full_Positional_Scan_104]             0.37

Entry under test: DLRSQDFSIVGSLPR [GlyRβ_Full_Positional_Scan_100] . Its Native geph Binding Intensity [norm.] was 0.97

Entry under test: DLRLNDFSIVGSLPR [GlyRβ_Full_Positional_Scan_064] . Its Native geph Binding Intensity [norm.] was 0.88

Entry under test: WLRSNDFSIVGSLPR [GlyRβ_Full_Positional_Scan_008] . Its Native geph Binding Intensity [norm.] was 0.67

Entry under test: DLRSNDFSIVWSLPR [GlyRβ_Full_Positional_Scan_208, GlyR β 414-428 variant G424W] . Its Native geph Binding Intensity [norm.] was 0.16

Entry under test: DDRSNDFSIVGSLPR [GlyRβ_Full_Positional_Scan_030] . Its Native geph Binding Intensity [norm.] was 0.9

Entry under test: DLRSCDFSIVGSLPR [GlyRβ_Full_Positional_Scan_097] . Its Native geph Binding Intensity [norm.] was 0.83

Entry under test: DLRSNDFAIVGSLPR [GlyRβ_Full_Positional_Scan_141, GlyR β 414-428 variant S421A] . Its Native geph Binding Intensity [norm.] was 0.35

Entry under test: DLRSNPFSIVGSLPR [GlyRβ_Full_Positional_Scan_105] . Its Native geph Binding Intensity [norm.] was 0.58

----------
Test system: FL-geph
Assay: µSPOT peptide microarray binding assay with full-length geph
Details: µSPOT peptide microarray, GlyRβ full positional scan, intensity normalised to wild-type sequence DLRSNDFSIVGSLPR (=1)
This listing pairs sequences with measured Fl-geph Binding Intensity [norm.].
I only need the number, in norm., no unit after it.

Solved entries:
> print(dat)
                             input.sequence  reported.result
1  DLRSNDFDIVGSLPR [GlyRβ_Full_Positional_Scan_150, GlyR β 414-428 variant S421D]              0.9
2  DLRSQDFSIVGSLPR [GlyRβ_Full_Positional_Scan_100]             1.01
3  DLRSRDFSIVGSLPR [GlyRβ_Full_Positional_Scan_092]             0.77
4  DDRSNDFSIVGSLPR [GlyRβ_Full_Positional_Scan_030]             1.26
5  DLRSNDFSIVDSLPR [GlyRβ_Full_Positional_Scan_210, GlyR β 414-428 variant G424D]             0.16

Entry under test: DMRSNDFSIVGSLPR [GlyRβ_Full_Positional_Scan_038] . Its Fl-geph Binding Intensity [norm.] was 0.97

Entry under test: DLRCNDFSIVGSLPR [GlyRβ_Full_Positional_Scan_077] . Its Fl-geph Binding Intensity [norm.] was 0.65

Entry under test: DLRSNNFSIVGSLPR [GlyRβ_Full_Positional_Scan_119] . Its Fl-geph Binding Intensity [norm.] was 0.69

Entry under test: DLPSNDFSIVGSLPR [GlyRβ_Full_Positional_Scan_045] . Its Fl-geph Binding Intensity [norm.] was 1.47

Entry under test: DLRSNHFSIVGSLPR [GlyRβ_Full_Positional_Scan_113] . Its Fl-geph Binding Intensity [norm.] was 0.85
